protocolSummary: RP-HPLC retention on Purosphere RP-18e (ODS) column, buffer pH 7.4-acetonitrile
Assay type: physicochemical
runConditions: extrapolated to buffer pH 7.4 as mobile phase, 25 °C
Protocol: Retention parameters reported as the log k values were calculated by the expression:(1) logk=log(tR−t0)/t0 where tR and t0 are the retention times of the solute and a non-retained compound (citric acid), respectively. […] As mobile phases buffer-acetonitrile mixtures were used. […] With the ODS column acetonitrile concentration in the effluent, expressed as a volume fraction (φ, v/v), was changed in the range 0.3–0.6, with the constant step of 0.1. […] They were detected under UV light at 210 and 254 nm. […]
endpointName: log kw, ODS

The cases that follow already have their log kw, ODS on record.
{"columns": ["molecule", "observedMeasurement"],
 "data": [
  ["O=c1c(-c2ccccc2)nnc2n1CCN2c1cccc(Cl)c1 [Compound 38]", 3.29],
  ["CCOC(=O)Cc1nnc2n(c1=O)CCN2c1cccc(Cl)c1 [Compound 15]", 2.85]
]}

[1] O=c1c(-c2ccco2)nnc2n1CCN2c1ccc(Cl)cc1 [Compound 26]
[2] COC(=O)Cc1nnc2n(c1=O)CCN2c1ccc(OC)cc1 [Compound 9]
Lab log: flag the item ( 1 or 2 ) with the smaller log kw, ODS figure. Your choice should be expressed through its label.
2

* * *

protocolSummary: RP-HPLC retention on Cosmosil Cholester column, buffer pH 7.4-acetonitrile
Type: physicochemical
runConditions: extrapolated to buffer pH 7.4 as mobile phase, 25 °C
endpointName: log kw, Cholester

{"columns": ["itemSmiles", "log kw, Cholester"],
 "data": [
  ["Cc1ccccc1N1CCn2c1nnc(Cc1ccccc1Cl)c2=O", 2.34]
]}

[1] O=c1c(-c2ccccc2)nnc2n1CCN2c1ccccc1
[2] CCc1nnc2n(c1=O)CCN2c1cccc(Cl)c1
[3] CCOc1ccc(N2CCn3c2nnc(Cc2ccc(Cl)cc2)c3=O)cc1
[4] O=c1c(-c2ccco2)nnc2n1CCN2c1ccccc1Cl
Task field, ranking: reported log kw, Cholester, descending order. List the labels, following the order given in the request.
3, 1, 4, 2

[P] O=c1c(CCc2ccccc2)nnc2n1CCN2c1ccccc1Cl
[Q] O=c1c(-c2ccccc2)nnc2n1CCN2c1ccc(Cl)cc1
[R] CCc1nnc2n(c1=O)CCN2c1ccc(C)cc1
Task field, ranking: reported log kw, Cholester, descending order. List the labels, following the order given in the request.
Q, P, R

* * *

protocolSummary: RP-HPLC retention on Purosphere RP-18e (ODS) column, buffer pH 7.4-acetonitrile
Type: physicochemical
runConditions: extrapolated to buffer pH 7.4 as mobile phase, 25 °C
endpointName: log kw, ODS

{"columns": ["itemSmiles", "log kw, ODS"],
 "data": [
  ["O=c1c(CCc2ccccc2)nnc2n1CCN2c1ccccc1", 2.80],
  ["Cc1ccc(N2CCn3c2nnc(-c2ccco2)c3=O)cc1", 2.43],
  ["Cc1ccccc1N1CCn2c1nnc(Cc1ccccc1Cl)c2=O", 3.01],
  ["CCc1nnc2n(c1=O)CCN2c1ccc(Cl)cc1", 1.78],
  ["COc1ccccc1N1CCn2c1nnc(-c1ccco1)c2=O", 1.67],
  ["O=c1c(-c2ccco2)nnc2n1CCN2c1ccccc1Cl", 2.25]
]}

* * *

protocolSummary: RP-HPLC retention on Purosphere RP-18e (ODS) column, buffer pH 7.4-acetonitrile
Format: physicochemical
runConditions: slope of Soczewiński-Wachtmeister equation, acetonitrile φ 0.3–0.6
endpointName: s ODS

{"columns": ["compound", "endpointName", "observedMeasurement"],
 "data": [
  ["COC(=O)Cc1nnc2n(c1=O)CCN2c1ccc(C)cc1 [Compound 8]", "s ODS", 3.82],
  ["COc1ccc(N2CCn3c2nnc(-c2ccco2)c3=O)cc1 [Compound 23]", "s ODS", 3.82],
  ["O=c1c(-c2ccccc2)nnc2n1CCN2c1ccccc1 [Compound 29]", "s ODS", 4.51]
]}

[I] Cc1ccc(Cc2nnc3n(c2=O)CCN3c2ccc(C)cc2)cc1 [Compound 46]
[II] CCOC(=O)Cc1nnc2n(c1=O)CCN2c1ccc(OC)cc1 [Compound 14]
Lab log: flag the item ( I or II ) with the smaller s ODS figure. Your choice should be expressed through its label.
II
(II: 3.15, I: 5.30)
